System: A549
Assay: NCI tumour cell line growth inhibition, 48 h
Activity calls are given as the source filed them. No stated cut-off is given here; in the data, active = GI50 up to about 1.1 µM and inactive = higher.
Lab note: assign the record to one of active, inactive

>>> assigned_label("CC(C)(C)CC(C)(C)c1cc2c(O)c(c1)Cc1cc(C(C)(C)CC(C)(C)C)cc(c1O)Cc1cc(C(C)(C)CC(C)(C)C)cc(c1O)Cc1cc(C(C)(C)CC(C)(C)C)cc(c1O)Cc1cc(C(C)(C)CC(C)(C)C)cc(c1O)Cc1cc(C(C)(C)CC(C)(C)C)cc(c1O)C2")
"inactive"
>>> assigned_label("C1=C(c2ccccc2)SC=C(c2ccccc2)S1")
"inactive"
>>> assigned_label("O=C(/N=N/c1cccc(Cl)c1)NNc1cccc(Cl)c1")
"inactive"
>>> assigned_label("Cc1cc(C)c(NC(=O)/C=C/c2ccccc2)c(C)c1")
"inactive"
>>> assigned_label("CCCCn1cc[n+](-c2nc3ccccc3n2C)c1")
"inactive"
>>> assigned_label("O=C1[C@H]2ON(c3ccccc3)C(c3cccc([N+](=O)[O-])c3)[C@H]2C(=O)N1c1ccc(Cc2ccc(N3C(=O)[C@@H]4ON(c5ccccc5)C(c5cccc([N+](=O)[O-])c5)[C@@H]4C3=O)cc2)cc1 (stereo not given in full)")
"inactive"
>>> assigned_label("CC(=O)O[C@H]1CC[C@@]2(C)C(=CC[C@@H]3[C@@H]2CC[C@]2(C)c4c(cc(C#N)c(=N)n4C(C)=O)C[C@@H]32)C1")
"inactive"
>>> assigned_label("O=c1c2cc(I)ccc2nc(SCc2nncs2)n1Cc1ccccc1")
"inactive"
>>> assigned_label("CC(=O)OC1C2CCC3C(C)(O)C4CC(O)C(C)(C)C4(O)C(O)CC13CC2(C)O (stereo not given)")
"inactive"
>>> assigned_label("O=C(Cn1nc(Br)c(Br)c1Br)c1ccccc1")
"inactive"

Ask: For CCOC(=O)CCNC(=O)c1cc(C)cc2c1Oc1c(cc(C)cc1C(=O)NCCC(=O)OCC)S2 , which call appears in the assay record?
Result: inactive

Ask: For CN(C)CCNC(=O)c1cccc2nc3cccc(F)c3nc12 , which call appears in the assay record?
Result: active

Ask: For CCOC(=O)/C=C(\C(=O)OCC)n1cnc2c(N)ncnc21 , which call appears in the assay record?
Result: inactive

Ask: For CN1CCN(C2=C(Cl)C(=O)c3c(O)ccc(O)c3C2=O)CC1 , which call appears in the assay record?
Result: inactive

Ask: For CS(=O)(=O)Sc1ccc(Cl)cc1 , which call appears in the assay record?
Result: inactive

Ask: For C[C@]12CC[C@H]3[C@@H](CCC4=CC(=O)C=C[C@@]43O)[C@@H]1CCC2=O , which call appears in the assay record?
Result: inactive

* * *

Test system: SF-268
Experiment: NCI tumour cell line growth inhibition, 48 h
The source made the active and inactive calls. Rule as the data show it: active = GI50 up to about 1.1 µM and inactive = higher.
# maps each entry to its GI50

Please review the entries below; each comes with its answer.
>>> observed_result("COc1ccc(Oc2cccc(C3C4C(=O)N(c5ccc(C)c(Cl)c5)C(=O)C4ON3C(C(N)=O)c3ccccc3)c2)cc1 (centres undefined)")
"18.3 µM (inactive)"
>>> observed_result("n1onc2c1NC1Nc3nonc3NC1N2 (centres undefined)")
"> 100 µM (inactive)"
>>> observed_result("Nc1n[n+]([O-])c2cnccc2[n+]1[O-]")
"93.8 µM (inactive)"

Ask: Suppose we examine the compound COC(=O)C12CCC(C(=O)OC)(Cc3c(c4ccccc4n3S(=O)(=O)c3ccccc3)C1)C2=O (centres undefined) ; what GI50 value has been reported?
Result: > 61 µM (inactive)

Ask: Suppose we examine the compound CC(C)(C)CC(C)(C)c1cc2c(O)c(c1)Cc1cc(C(C)(C)CC(C)(C)C)cc(c1O)Cc1cc(C(C)(C)CC(C)(C)C)cc(c1O)Cc1cc(C(C)(C)CC(C)(C)C)cc(c1O)Cc1cc(C(C)(C)CC(C)(C)C)cc(c1O)Cc1cc(C(C)(C)CC(C)(C)C)cc(c1O)C2 ; what GI50 value has been reported?
Result: > 100 µM (inactive)

Ask: Suppose we examine the compound C#CC(O)(c1nc2ccccc2s1)c1nc2ccccc2s1 ; what GI50 value has been reported?
Result: 28.5 µM (inactive)

Ask: Suppose we examine the compound COc1ccc(C2=NN(C(C)=O)c3nc4ccccc4nc3O2)cc1 ; what GI50 value has been reported?
Result: 31.3 µM (inactive)

Ask: Suppose we examine the compound CO[C@H]1C=C[C@]23c4cc5c(cc4CN(CC2O)[C@@H]3C1)OCO5 (some centres undefined) ; what GI50 value has been reported?
Result: 2.17 µM (inactive)

Ask: Suppose we examine the compound O=c1c(Sc2c(O)c3ccccc3c3ccccc3c2=O)c(O)c2ccccc2c2ccccc12 ; what GI50 value has been reported?
Result: 20 µM (inactive)
